System: clinical isolates of methicillin-resistant S. aureus (MRSA)
Test name: broth microdilution IC50 on MRSA clinical isolates
Assay type: cell-based
Assay conditions: Staphylococcus aureus; five MRSA clinical isolates, range of IC50; read-out: IC50 ranges, MRSA (n = 5)
pIC50: −log10 of the molar value.
For each entry below, report its pIC50 value.

Check out these entries, answers already filled in.
Clc1ccc2c(NCCn3cc(CN4c5ccccc5Sc5ccccc54)nn3)ccnc2c1 [Compound 4a] = 5.05 to 5.11
Clc1ccc2c(c1)N(Cc1cn(CCCNc3ccnc4cc(Cl)ccc34)nn1)c1ccccc1S2 [Compound 5b] = 4.99 to 5.21
Clc1ccc2c(c1)N(Cc1cn(CCNc3ccnc4cc(Cl)ccc34)nn1)c1ccccc1S2 [Compound 4b] = 5.19 to 5.35

Enquiry: Enter pIC50 (test system clinical isolates of methicillin-resistant S. aureus (MRSA)) for Clc1ccc2c(NCCCn3cc(CN4c5ccccc5Sc5ccccc54)nn3)ccnc2c1 [Compound 5a]
Return: 5.02 to 5.19

###

Test name: cell viability and proliferation assay (CCK-8/WST8)
Assay type: cell-based
Assay conditions: human, WS1 cells (human-derived fibroblasts, ATCC CRL-1502), mean value with standard deviation
Exercise: for every item that follows, state its recorded CC50 at 48 h.
Numbers only, in µM.

Clc1ccc2c(c1)N(Cc1cn(CCNc3ccnc4cc(Cl)ccc34)nn1)c1ccccc1S2 = 12.7
Clc1ccc2c(c1)N(Cc1cn(CCCNc3ccnc4cc(Cl)ccc34)nn1)c1ccccc1S2 = 22.1
Clc1ccc2c(NCCCn3cc(CN4c5ccccc5Sc5ccccc54)nn3)ccnc2c1 = 11.8
Clc1ccc2c(c1)N(Cc1cn(CCCCCNc3ccnc4cc(Cl)ccc34)nn1)c1ccccc1S2 = 34.3
Clc1ccc2c(NCCn3cc(CN4c5ccccc5Sc5ccccc54)nn3)ccnc2c1 = 17.9

We now examine a further molecule.
Enquiry: Given Clc1ccc2c(NCCCCCn3cc(CN4c5ccccc5Sc5ccccc54)nn3)ccnc2c1 , respond with its CC50 at 48 h.
Return: 48.3

###

System: P. falciparum CQ-sensitive (CQ-S) D10 strain
Test name: antiplasmodial drug susceptibility assay (pLDH), CQ-sensitive strain
Format: cell-based
Assay conditions: Plasmodium falciparum, D10, 72 h, read-out: IC50 D10 (CQ-S)
Description: P. falciparum cultures were carried out according to Trager and Jensen with slight modifications. […] Parasite growth was determined spectrophotometrically (OD650nm) by measuring the activity of the parasite lactate dehydrogenase (pLDH), as described in a modified version of Makler’s method in control- and drug-treated cultures. […]
Experimental endpoint: IC50

Enquiry: Retrieve IC50 measured for CCN(CC)CCCC(C)Nc1ccnc2cc(Cl)ccc12 (stereo not shown) [CQ, chloroquine, reference compound] and print it.
Return: 25 nM

###

System: clinical isolates of S. aureus (MRSA)
Test name: antibiotic susceptibility profiling of clinical isolates (Vitek2, EUCAST); also: key: R = Resistant; S = Susceptible; I = Intermediate
Format: cell-based, Staphylococcus aureus
Assay conditions: clinical isolate MRSA 2
Experimental endpoint: Antibiotic-resistance profile, MRSA 2

CN(C)[C@@H]1C(O)=C(C(N)=O)C(=O)[C@@]2(O)C(O)=C3C(=O)c4c(O)cccc4[C@@](C)(O)[C@H]3C[C@@H]12 = S
C[C@H]1COc2c(N3CCN(C)CC3)c(F)cc3c(=O)c(C(=O)O)cn1c23 = R
CN[C@H](CC(C)C)C(=O)N[C@H]1C(=O)N[C@@H](CC(N)=O)C(=O)N[C@H]2C(=O)N[C@H]3C(=O)N[C@H](C(=O)N[C@H](C(=O)O)c4cc(O)cc(O)c4-c4cc3ccc4O)[C@H](O)c3ccc(c(Cl)c3)Oc3cc2cc(c3O[C@@H]2O[C@H](CO)[C@@H](O)[C@H](O)[C@H]2O[C@H]2C[C@](C)(N)[C@H](O)[C@H](C)O2)Oc2ccc(cc2Cl)[C@H]1O = S
Cc1onc(-c2ccccc2)c1C(=O)N[C@@H]1C(=O)N2[C@@H]1SC(C)(C)[C@@H]2C(=O)O = R

Could you now look at the following compound, please?
Enquiry: Give the reported Antibiotic-resistance profile, MRSA 2 for this compound. CNC(C)C1CCC(N)C(OC2C(N)CC(N)C(OC3OCC(C)(O)C(NC)C3O)C2O)O1 (centres unmarked)
Return: S

###

Test system: clinical isolates of S. aureus (MRSA)
Test name: antibiotic susceptibility profiling of clinical isolates (Vitek2, EUCAST); also: key: R = Resistant; S = Susceptible; I = Intermediate
Assay type: cell-based, Staphylococcus aureus
Assay conditions: clinical isolate MRSA 5
Experimental endpoint: Antibiotic-resistance profile, MRSA 5

Check out these entries, answers already filled in.
CCC[C@@H]1C[C@@H](C(=O)N[C@@H]([C@H]2O[C@H](SC)[C@H](O)[C@@H](O)[C@H]2O)[C@H](C)Cl)N(C)C1 [CM, Clindamicyn] = S
CC[C@H]1OC(=O)[C@H](C)[C@@H](O[C@H]2C[C@@](C)(OC)[C@@H](O)[C@H](C)O2)[C@H](C)[C@@H](O[C@@H]2O[C@H](C)C[C@H](N(C)C)[C@H]2O)[C@](C)(O)C[C@@H](C)C(=O)[C@H](C)[C@@H](O)[C@]1(C)O [E, Erythromycin] = S
CN[C@H](CC(C)C)C(=O)N[C@H]1C(=O)N[C@@H](CC(N)=O)C(=O)N[C@H]2C(=O)N[C@H]3C(=O)N[C@H](C(=O)N[C@H](C(=O)O)c4cc(O)cc(O)c4-c4cc3ccc4O)[C@H](O)c3ccc(c(Cl)c3)Oc3cc2cc(c3O[C@@H]2O[C@H](CO)[C@@H](O)[C@H](O)[C@H]2O[C@H]2C[C@](C)(N)[C@H](O)[C@H](C)O2)Oc2ccc(cc2Cl)[C@H]1O [VA, Vancomycin] = S
CN(C)[C@@H]1C(O)=C(C(N)=O)C(=O)[C@@]2(O)C(O)=C3C(=O)c4c(O)cccc4[C@@](C)(O)[C@H]3C[C@@H]12 [TE, Tetracycline] = S
CNC(C)C1CCC(N)C(OC2C(N)CC(N)C(OC3OCC(C)(O)C(NC)C3O)C2O)O1 (stereo not shown) [GEN, gentamicin] = S

// for each compound below, give its Antibiotic-resistance profile, MRSA 5
1. Cc1onc(-c2ccccc2)c1C(=O)N[C@@H]1C(=O)N2[C@@H]1SC(C)(C)[C@@H]2C(=O)O [OX, Oxacillin]
2. C[C@H]1COc2c(N3CCN(C)CC3)c(F)cc3c(=O)c(C(=O)O)cn1c23 [LVX, Levofloxacin]

Return:
R
R

###

Kindly state IC50 for each of the entries shown.
Tested on: P. falciparum CQ-resistant (CQ-R) W2 strain
Test name: antiplasmodial drug susceptibility assay (pLDH), CQ-resistant strain
Type: cell-based
Assay conditions: Plasmodium falciparum; P. falciparum W2, 72 h, pLDH; mean value with standard deviation; read-out: IC50 W2 (CQ-R)
Numbers only, in nM.

Completed entries (count: 4):
Clc1ccc2c(c1)N(Cc1cn(CCCCCNc3ccnc4cc(Cl)ccc34)nn1)c1ccccc1S2 [Compound 6b] = 184
Clc1ccc2c(c1)N(Cc1cn(CCCNc3ccnc4cc(Cl)ccc34)nn1)c1ccccc1S2 [Compound 5b] = 135
Clc1ccc2c(N3CCN(CCCn4cc(CN5c6ccccc6Sc6ccccc65)nn4)CC3)ccnc2c1 [Compound 8] = 2170
Clc1ccc2c(NCCCn3cc(CN4c5ccccc5Sc5ccccc54)nn3)ccnc2c1 [Compound 5a] = 174

// each molecule listed below needs its IC50
1. Clc1ccc2c(NCCn3cc(CN4c5ccccc5Sc5ccccc54)nn3)ccnc2c1 [Compound 4a]
2. Clc1ccc2c(c1)N(Cc1cn(CCNc3ccnc4cc(Cl)ccc34)nn1)c1ccccc1S2 [Compound 4b]
3. Clc1ccc2c(NCCCCCn3cc(CN4c5ccccc5Sc5ccccc54)nn3)ccnc2c1 [Compound 6a]

Return:
[200, 154, 377]

# return IC50 for each item in the list
1. Clc1ccc2c(N3CCN(CCCCCN4c5ccccc5Sc5ccccc54)CC3)ccnc2c1 [Compound 3]
2. Clc1ccc2c(N3CCN(CCCN4c5ccccc5Sc5ccccc54)CC3)ccnc2c1 [Compound 1]

Return:
[990, 2320]

###

System: S. aureus ATCC 25923
Test name: broth microdilution antimicrobial assay (MIC, IC50)
Assay type: cell-based
Assay conditions: Staphylococcus aureus, ATCC25923; reference strain, range of IC50; read-out: IC50 ranges, ATCC 25923
pIC50: −log10 of the molar value.
Assignment: determine reported pIC50 for the given molecules.

Look over these answered cases.
Clc1ccc2c(NCCCn3cc(CN4c5ccccc5Sc5ccccc54)nn3)ccnc2c1 = 5.09 to 5.27
Clc1ccc2c(c1)N(Cc1cn(CCCNc3ccnc4cc(Cl)ccc34)nn1)c1ccccc1S2 = 5.17 to 5.48
Clc1ccc2c(c1)N(Cc1cn(CCNc3ccnc4cc(Cl)ccc34)nn1)c1ccccc1S2 = 5.24 to 5.40

Next up:
Enquiry: Report its pIC50 with S. aureus ATCC 25923 as the test system: Clc1ccc2c(NCCn3cc(CN4c5ccccc5Sc5ccccc54)nn3)ccnc2c1
Return: 5.12 to 5.13

###

Test name: cell viability and proliferation assay (CCK-8/WST8)
Format: cell-based
Assay conditions: human, WS1 cells (human-derived fibroblasts, ATCC CRL-1502), mean value with standard deviation
Description: WS1 cells (ATCC CRL-1502) were selected as a model system to investigate the effect of PTZ-quinoline hybrid compounds on human-derived fibroblasts. […] Cell viability was assessed by a WST8-based assay according to the manufacturer’s instructions (CCK-8, Cell Counting Kit-8, Dojindo Molecular Technologies, Rockville, MD, USA). […] Following a 2 h incubation at 37 °C, the OD450nm was read, and data were expressed as the percentage of cell viability relative to the untreated controls. […]
Experimental endpoint: CC50 at 48 h

# example entries with known answers
Clc1ccc2c(N3CCN(CCCCN4c5ccccc5Sc5ccccc54)CC3)ccnc2c1 = > 100 µM
Clc1ccc2c(N3CCN(CCCn4cc(CN5c6ccccc6Sc6ccccc65)nn4)CC3)ccnc2c1 = > 100 µM

Next molecule, CC50 at 48 h to be filled in.
Enquiry: Entry Clc1ccc2c(N3CCN(CCCN4c5ccccc5Sc5ccccc54)CC3)ccnc2c1 needs its CC50 at 48 h filled in; supply it.
Return: > 100 µM
